# Target Or System: Fuc(a1-2)[Gal(a1-3)]Gal(b1-4)GlcNAc(b1-6)GalNAc
# Assay Protocol: glycan array binding signal (z-score within array); higher = stronger binding
# Experimental Conditions: glycan notation: IUPAC condensed, linker removed
The sample as a whole holds a higher share of the strongest signals than the screen did.
I'd appreciate it if you could supply glycan array binding signal (z-score) values for the items below.

stdin: GET /values?readout=glycan array binding signal (z-score)&item= Protein L(B1-B4) (Finegoldia magna), Q51912 (protein) KEETPETPETDSEEEVTIKANLIFANGSTQTAEFKGTFEKATSEAYAYADTLKKDNGEYTVDVADKGYTLNIKFAGKEKTPEEPKEEVTIKANLIYADGKTQTAEFKGTFEEATAEAYRYADALKKDNGEYTVDVADKGYTLNIKFAGKEKTPEEPKEEVTIKANLIYADGKTQTAEFKGTFEEATAEAYRYADLLAKENGKYTVDVADKGYTLNIKFAGKEKTPEEPKEEVTIKANLIYADGKTQTAEFKGTFAEATAEAYRYADLLAKENGKYTADLEDGGYTINIRFAG
stdout: -0.474

stdin: GET /values?readout=glycan array binding signal (z-score)&item= Na-CTL-1 (Necator americanus) (protein) MQRSFLLLLVVLAGAWAVNTTIPLKLMGGFTPMKYQCVGRVSDIWADVLFLIESSDMITKSGFRQVIAFITATTKKMTIGQDEKQTRVGFITYGEEAKLIYDLDHWRSTEKLSDLVQKIPYVKSSGTNIAAAIALANKVFNSPTHRPNVPKVMVIVANGLKKGSQNPIPVATAFKDFGGIIITIEYTQYDNIQVPILKKIASEGYNIRSNDEDFSVRTLTNMLLQANCFCPDHYVPFRVNNPEFGCFVTAKIPSMWRDAAEMCRAVEEGKLVKVENEEKAAFIMKLVGPKKEAWIGLRYYGNKFQWTDGTKLNADDFNLWPEDIKELNGPHCVSMYQDQKDKKYYWRAGKCLEDMRYVCEVQPCSASNYCSEPVFMYRQKHRALLPAPPPPPN
stdout: -0.539

stdin: GET /values?readout=glycan array binding signal (z-score)&item= Epa3to2 (Candida glabrata) (protein) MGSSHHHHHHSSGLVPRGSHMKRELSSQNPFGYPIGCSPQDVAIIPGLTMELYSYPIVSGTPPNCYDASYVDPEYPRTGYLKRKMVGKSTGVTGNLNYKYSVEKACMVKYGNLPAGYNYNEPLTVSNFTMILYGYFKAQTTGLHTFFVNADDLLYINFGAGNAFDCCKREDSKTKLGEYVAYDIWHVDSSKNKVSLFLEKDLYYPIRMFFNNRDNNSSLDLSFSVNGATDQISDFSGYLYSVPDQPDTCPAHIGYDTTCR
stdout: -0.714

stdin: GET /values?readout=glycan array binding signal (z-score)&item= PNGase F (Flavobacterium meningosepticum) (protein) GIPAPADNTVNIKTFDKVKNAFGDGLSQSAEGTFTFPADVTAVKTIKMFIKNECPNKTCDEWDRYANVYVKNKTTGEWYEIGRFITPYWVGTEKLPRGLEIDVTDFKSLLSGNTELKIYTETWLAKGREYSVDFDIVYGTPDYKYSAVVPVVQYNKSSIDGVPYGKAHTLALKKNIQLPTNTEKAYLRTTISGWGHAKPYDAGSRGCAEWCFRTHTIAINNSNTFQHQLGALGCSANPINNQSPGNWTPDRAGWCPGMAVPTRIDVLNNSLIGSTFSYEYKFQNWTNNGTNGDAFYAISSFVIAKSNTPISAPVVTNLDPHHHHHH
stdout: 0.476
